All values here come from PubChem BioAssay AID1850.

assay: PhoP regulon inhibitors, Salmonella typhi PhoP promoter GFP reporter, confirmatory (AID 1850); details: fluorescence, 4 h, at 50 µM, active compounds read high;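 further: 0% = induced wells with vehicle and 100% = uninduced wells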
About 1,000 (0.32%) of roughly 310,000 compounds were called active. The list is a sample of the results. Measured potencies and affinities stand elsewhere.
Exercise: for every item that follows, state its recorded inhibition.
Write the number in % without appending the unit.

Please fill in: inhibition reported for Cc1oc2cc3oc(=O)c(CC(=O)NCC(=O)N[C@@H](C(=O)O)c4ccccc4)c(C)c3cc2c1C = 3.13

Please fill in: inhibition reported for COc1ccc(OC)c(NC(=O)c2nnn(CC(=O)Nc3ccc4c(c3)OCO4)c2N)c1 = -17.1

Please fill in: inhibition reported for O=c1cc(CN2CCN(C/C=C/c3ccccc3)CC2)c2cc(O)c(-c3ccccc3)cc2o1 = 1.7

Please fill in: inhibition reported for CCOC(=O)C1CCN(Cc2c(F)cccc2Cl)CC1 = -1.3

Please fill in: inhibition reported for O=C(NCC1CCCO1)c1cccc(NC(=O)c2ccc(Br)cc2)c1 (configuration not stated) = -6.91

Please fill in: inhibition reported for COc1ccc(Nc2nc(-c3ccccc3)nc3ccccc23)cc1 = 6.48

Please fill in: inhibition reported for O=C1CSC(c2ccc3c(c2)OCO3)N1c1ccc(Oc2ccccc2)cc1 (configuration not stated) = 7.07

Please fill in: inhibition reported for NC(=O)C[n+]1ccc(/C=N/O)cc1 = -7.01

Please fill in: inhibition reported for Cc1ccc(OCC(O)Cn2c(=N)n(CCN3CCOCC3)c3ccccc32)cc1 (configuration not stated) = 14

Please fill in: inhibition reported for O=C(NCc1cccc(C(F)(F)F)c1)C1CCCN(c2cnccn2)C1 (configuration not stated) = 3.94

Please fill in: inhibition reported for Cc1cccc(NC2=NC(C)(C)N=C(N)N2)c1 = -5.24

Please fill in: inhibition reported for COCc1cnc(C)nc1N = -2.28

Please fill in: inhibition reported for C/C(=N\Nc1ccccc1Cl)c1ccc(-n2ccnc2)cc1 = 7.81

Please fill in: inhibition reported for COc1ccc2nc(-c3ccccc3)nc(C3CCCCC3)c2c1 = -28.1

Please fill in: inhibition reported for CN(CC(=O)Nc1cccc(F)c1)C(=O)c1ccncc1 = -3.54

Please fill in: inhibition reported for COc1cccc(C(C(=O)NC2CCCCC2)N(C(=O)Cc2cccs2)c2ccc(-n3cnnn3)c(OC)c2)c1 (configuration not stated) = -9.92

Please fill in: inhibition reported for O=c1cc(CN2CCN(C/C=C/c3ccccc3)CC2)c2cc(O)ccc2o1 = 0.2

Please fill in: inhibition reported for COc1ccccc1Nc1c2c(nc3ccccc13)CCC2 = 0.56

Please fill in: inhibition reported for CCOc1cc(C(=O)Nc2nnc(S(=O)(=O)N3CCOCC3)s2)cc(OCC)c1OCC = -12.6

Please fill in: inhibition reported for O=C(CCCn1cc([N+](=O)[O-])cn1)NCc1ccccc1 = 8.46

Please fill in: inhibition reported for CCN(CC)C(=O)C[n+]1ccc(C(N)=O)cc1 = -3.67

Please fill in: inhibition reported for Cc1cccc(C)c1NC1=NC(C)(C)N=C(N)N1 = -2.14
